- protocol: Cell toxicity in the HSV-2 assay
Give measured Cell Toxicity for each item. Keep answers brief.

compound	Cell Toxicity
CCCCCCC[C@@H](O)CC(=O)N[C@@H](CC(C)C)C(=O)N[C@H](CCC(=O)O)C(=O)Nc1ccc2c(c1)OCCOCCOCCOCCO2	> 100 µg/mL
CCCCCCCCCCCCCCC(CCC(=O)O)C(=O)Nc1ccc2c(c1)OCCOCCOCCOCCO2 (centres unmarked)	33 µg/mL
CCCCCCCCCCCCCCCCCC(=O)c1ccc2c(c1)OCCOCCOCCOCCO2	> 100 µg/mL
CCCCCCC[C@@H](O)CC(=O)N[C@@H](CC(C)C)C(=O)N[C@H](CCC(=O)O)C(N)=O [Compound 7, D-3-Hydroxydecanoyl-L-Leu-D-Glu-Amide]	> 100 µg/mL

Now, please, on to the next compound.
Lookup: Recorded Cell Toxicity of CCCCCCC[C@@H](O)CC(=O)N[C@@H](CC(C)C)C(=O)N[C@H](CCC(=O)OCc1ccccc1)C(=O)Nc1ccc2c(c1)OCCOCCOCCOCCO2 , please.
Found: > 100 µg/mL

====

Answer each item with its documented Lowest concentration with activity against L. Donovani: Growth.
- Tested on: Leishmania donovani
- protocol: Effect on growth of L. donovani in serum-containing and serum-free medium
- Format: cell-based
- run-parameters: serum-containing M199 medium; cell densities at 21 hr, in some cases 43 hr, 27° C.
Answers are plain numbers, in mg/mL.

Below are worked cases with known answers.
compound	unit-abbrev	measurement
CCCCCCCCCCCCCCC(CCC(=O)O)C(=O)Nc1ccc2c(c1)OCCOCCOCCOCCO2 (stereo not shown)	mg/mL	30
CCCCCCC[C@@H](O)CC(=O)N[C@@H](CC(C)C)C(=O)N[C@H](CCC(=O)OCc1ccccc1)C(=O)Nc1ccc2c(c1)OCCOCCOCCOCCO2	mg/mL	100

Here's the next entry for you.
Lookup: Item CCCCCCCCCCCCCCC(CCC(=O)OCc1ccccc1)C(=O)Nc1ccc2c(c1)OCCOCCOCCOCCO2 (stereo not shown) has what recorded Lowest concentration with activity against L. Donovani: Growth?
Found: 100

====

- protocol: Cell toxicity in the HSV-2 assay
measurement-type: Cell Toxicity (µg/mL)
Numbers only, in µg/mL.

compound	unit-abbrev	Cell Toxicity
CCCCCCCCCC(=O)N[C@@H](CC(C)C)C(=O)N[C@H](CCC(=O)OCc1ccccc1)C(=O)Nc1ccc2c(c1)OCCOCCOCCOCCO2	µg/mL	100

We next turn to a different compound, shown below.
Lookup: Bench note: what Cell Toxicity did CCCCCCCCCCCCCCC(CCC(=O)OCc1ccccc1)C(=O)Nc1ccc2c(c1)OCCOCCOCCOCCO2 (stereo not shown) show?
Found: 100
